# Assay target: recombinant human DPP9 (Homo sapiens, UniProt Q86TI2)
# Construct: purchased R&D Systems
# Sequence (Q86TI2 whole entry): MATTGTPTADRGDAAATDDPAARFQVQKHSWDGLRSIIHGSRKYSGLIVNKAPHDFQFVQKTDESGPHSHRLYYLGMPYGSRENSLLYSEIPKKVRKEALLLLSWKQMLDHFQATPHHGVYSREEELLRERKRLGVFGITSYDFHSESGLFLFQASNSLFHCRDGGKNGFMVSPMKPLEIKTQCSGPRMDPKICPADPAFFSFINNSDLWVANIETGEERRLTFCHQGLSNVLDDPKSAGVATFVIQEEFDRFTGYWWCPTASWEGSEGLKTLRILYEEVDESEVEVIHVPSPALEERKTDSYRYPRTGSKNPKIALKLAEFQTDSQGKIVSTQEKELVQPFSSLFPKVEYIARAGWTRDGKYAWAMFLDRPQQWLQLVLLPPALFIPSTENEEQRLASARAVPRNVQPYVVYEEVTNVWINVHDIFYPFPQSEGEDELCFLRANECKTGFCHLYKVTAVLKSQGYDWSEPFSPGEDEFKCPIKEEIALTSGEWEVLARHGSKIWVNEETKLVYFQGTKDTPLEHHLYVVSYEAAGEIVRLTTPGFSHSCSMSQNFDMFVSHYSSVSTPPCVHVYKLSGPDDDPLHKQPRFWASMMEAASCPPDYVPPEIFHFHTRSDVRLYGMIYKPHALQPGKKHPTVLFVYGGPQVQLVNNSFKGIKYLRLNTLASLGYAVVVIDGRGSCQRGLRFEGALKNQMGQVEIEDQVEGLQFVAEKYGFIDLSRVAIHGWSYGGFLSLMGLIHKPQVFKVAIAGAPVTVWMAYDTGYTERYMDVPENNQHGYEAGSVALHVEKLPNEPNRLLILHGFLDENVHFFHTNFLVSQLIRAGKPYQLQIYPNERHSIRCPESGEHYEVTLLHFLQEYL
# Protocol notes: DPP9 inhibition, fluorogenic substrate H-Gly-Pro-AMC
# Format: biochemical
# Stated conditions: 25° C., H-Gly-Pro-AMC substrate
pIC50: −log10 of the molar value.
Metric name: pIC50

# Smiles notation, pIC50
data = [
    ("Cc1cnc2cccc(NC3CCN(CC(=O)N4C[C@@H](F)C[C@H]4C#N)CC3)c2c1", 5.56),
    ("COc1ccc2c(C(=O)N[C@H]3CCN(CC(=O)N4C[C@@H](F)C[C@H]4C#N)C3)coc2c1", 4.84),
    ("N#C[C@@H]1CCCN1C(=O)CN1CC[C@H](Nc2cccc3sccc23)C1", 4.16),
    ("N#C[C@@H]1CC(F)(F)CN1C(=O)CN1CC[C@H](Nc2cccc3ccsc23)C1", 5.00),
]

A. N#C[C@@H]1C[C@@H]2C[C@@H]2N1C(=O)CN1CCC(Nc2cccc3ncccc23)CC1
B. CN(c1ccc2ncccc2c1)[C@H]1CCN(CC(=O)N2CCC[C@H]2C#N)C1
Kindly compare A with B and tell me which has the lower pIC50 figure. Answer with the label corresponding to your selection. A
(A: 4.35, B: 4.77)
